settings: 313.15 K; 101.33 kPa; Liquid; Vibrating tube method
PROPERTY: mass density (kg/m3)
Respond with the bare value in kg/m3.

| COMPOUND | RECORDED VALUE |
| --- | --- |
| CCn1cc[n+](CC)c1.[Br-] [1,3-diethyl-1H-imidazolium bromide] | 1339.95 |
| CCCCCCCC[n+]1ccn(CC)c1.[Br-] [1-ethyl-3-octyl-1H-imidazolium bromide] | 1134.69 |
| CCCCCCCCCCCC[n+]1ccn(CC)c1.[Br-] [3-dodecyl-1-ethyl-1H-imidazolium bromide] | 1070.48 |

Ask | Can you look up the measured mass density of CCCC[n+]1ccn(CC)c1.[Br-] [1-butyl-3-ethylimidazolium bromide] for me?
Reply | 1248.92

Ask | Now the same for CCCCCCCCCCCC[n+]1ccn(CCCC)c1.[Br-] [1-butyl-3-dodecyl-1H-imidazolium bromide]
Reply | 1045.73

Ask | Another compound: CCCCCCCC[n+]1ccn(CCCC)c1.[Br-] [1-butyl-3-octyl-1H-imidazolium bromide]
Reply | 1109.25

Ask | // query: CCCCCC[n+]1ccn(CC)c1.[Br-] [1-ethyl-3-hexyl-1H-imidazolium bromide]
Reply | 1183.02

Ask | Same for CCCCCC[n+]1ccn(CCCC)c1.[Br-] [1-butyl-3-hexyl-1H-imidazolium bromide]
Reply | 1135.17

Ask | # iterate: CCCCn1cc[n+](CCCC)c1.[Br-] [1,3-dibutylimidazolium bromide]
Reply | 1183.34

----------
Documented mass density across a set of compounds
conditions: 303.15 K; 101.33 kPa; Liquid; Vibrating tube method
Just the number please, in kg/m3, no unit attached.

| COMPOUND | PROPERTY | RECORDED VALUE |
| --- | --- | --- |
| CCCCn1cc[n+](CCCC)c1.[Br-] [1,3-dibutylimidazolium bromide] | mass density | 1190.32 |

Ask | Which value of mass density has been reported for CCn1cc[n+](CC)c1.[Br-] [1,3-diethyl-1H-imidazolium bromide] in the records?
Reply | 1347.51

Ask | Then this compound: CCCCCC[n+]1ccn(CCCC)c1.[Br-] [1-butyl-3-hexyl-1H-imidazolium bromide]
Reply | 1142.11

Ask | Here is the next compound: CCCCCC[n+]1ccn(CC)c1.[Br-] [1-ethyl-3-hexyl-1H-imidazolium bromide]
Reply | 1190.1

Ask | Lookup CCCCCCCC[n+]1ccn(CCCC)c1.[Br-] [1-butyl-3-octyl-1H-imidazolium bromide]
Reply | 1116.27

Ask | Now the same for CCCCCCCCCCCC[n+]1ccn(CC)c1.[Br-] [3-dodecyl-1-ethyl-1H-imidazolium bromide]
Reply | 1077.53

Ask | And for CCCCCCCCCCCC[n+]1ccn(CCCC)c1.[Br-] [1-butyl-3-dodecyl-1H-imidazolium bromide] ?
Reply | 1052.6

Ask | Next entry: CCCCCCCC[n+]1ccn(CC)c1.[Br-] [1-ethyl-3-octyl-1H-imidazolium bromide]
Reply | 1141.74

Ask | CCCC[n+]1ccn(CC)c1.[Br-] [1-butyl-3-ethylimidazolium bromide] , same question.
Reply | 1255.95

----------
details: 293.15 K; 101.33 kPa; Liquid; Vibrating tube method
PROPERTY: mass density (kg/m3)
Response body: numeric value in kg/m3, unit text excluded.

| COMPOUND | mass density, kg/m3 |
| --- | --- |
| CCCC[n+]1ccn(CC)c1.[Br-] [1-butyl-3-ethylimidazolium bromide] | 1263.23 |

Ask | I have this compound here, CCCCCCCCCCCC[n+]1ccn(CCCC)c1.[Br-] [1-butyl-3-dodecyl-1H-imidazolium bromide] , and I need its recorded mass density.
Reply | 1059.3

----------
details: 323.15 K; 101.33 kPa; Liquid; Vibrating tube method
As shown below, each of these compounds has a reported mass density value.
The figure you give is taken to be in kg/m3; do not add the unit.

| COMPOUND | UNIT SYMBOL | mass density |
| --- | --- | --- |
| CCCCCCCCCCCC[n+]1ccn(CC)c1.[Br-] [3-dodecyl-1-ethyl-1H-imidazolium bromide] | kg/m3 | 1063.43 |

Ask | // mass density lookup, key: CCCC[n+]1ccn(CC)c1.[Br-] [1-butyl-3-ethylimidazolium bromide]
Reply | 1241.93

Ask | Here is the next compound: CCCCn1cc[n+](CCCC)c1.[Br-] [1,3-dibutylimidazolium bromide]
Reply | 1176.52

Ask | For CCCCCCCCCCCC[n+]1ccn(CCCC)c1.[Br-] [1-butyl-3-dodecyl-1H-imidazolium bromide] then?
Reply | 1038.83

Ask | Follow-up item: CCn1cc[n+](CC)c1.[Br-] [1,3-diethyl-1H-imidazolium bromide]
Reply | 1332.29

Ask | Param item: CCCCCC[n+]1ccn(CC)c1.[Br-] [1-ethyl-3-hexyl-1H-imidazolium bromide]
Reply | 1175.88

Ask | Same again, this time with CCCCCCCC[n+]1ccn(CC)c1.[Br-] [1-ethyl-3-octyl-1H-imidazolium bromide]
Reply | 1127.5

Ask | Also, CCCCCC[n+]1ccn(CCCC)c1.[Br-] [1-butyl-3-hexyl-1H-imidazolium bromide] please.
Reply | 1128.22

Ask | Same question for CCCCCCCC[n+]1ccn(CCCC)c1.[Br-] [1-butyl-3-octyl-1H-imidazolium bromide] please.
Reply | 1102.23

----------
details: 298.15 K; 101.33 kPa; Liquid; Vibrating tube method
± gives the expanded uncertainty stated by the source.
mass density by entry:
The number alone won't do; follow it with the unit.

// worked examples, mass density included
| COMPOUND | PROPERTY | RECORDED VALUE |
| --- | --- | --- |
| CCCCCCCC[n+]1ccn(CCCC)c1.[Br-] [1-butyl-3-octyl-1H-imidazolium bromide] | mass density | 1119.72 ± 1.8 kg/m3 |
| CCCCCCCCCCCC[n+]1ccn(CC)c1.[Br-] [3-dodecyl-1-ethyl-1H-imidazolium bromide] | mass density | 1080.97 ± 1.5 kg/m3 |
| CCCCCCCC[n+]1ccn(CC)c1.[Br-] [1-ethyl-3-octyl-1H-imidazolium bromide] | mass density | 1145.43 ± 1.9 kg/m3 |
| CCCC[n+]1ccn(CC)c1.[Br-] [1-butyl-3-ethylimidazolium bromide] | mass density | 1259.4 ± 13 kg/m3 |

Ask | Param item = CCCCn1cc[n+](CCCC)c1.[Br-] [1,3-dibutylimidazolium bromide] ; retrieve measured mass density.
Reply | 1193.75 ± 1.6 kg/m3

Ask | What do we get for CCCCCC[n+]1ccn(CC)c1.[Br-] [1-ethyl-3-hexyl-1H-imidazolium bromide] ?
Reply | 1193.59 ± 11 kg/m3

----------
details: 318.15 K; 101.33 kPa; Liquid; Vibrating tube method
Here the recorded mass density is given for each entry.
The answer is to be given in kg/m3; state only the numeric part.

// known answers, use as guide
| COMPOUND | UNIT SYMBOL | mass density |
| --- | --- | --- |
| CCCCCC[n+]1ccn(CCCC)c1.[Br-] [1-butyl-3-hexyl-1H-imidazolium bromide] | kg/m3 | 1131.7 |
| CCCCn1cc[n+](CCCC)c1.[Br-] [1,3-dibutylimidazolium bromide] | kg/m3 | 1180.06 |
| CCCCCCCC[n+]1ccn(CC)c1.[Br-] [1-ethyl-3-octyl-1H-imidazolium bromide] | kg/m3 | 1131.07 |
| CCCCCCCCCCCC[n+]1ccn(CCCC)c1.[Br-] [1-butyl-3-dodecyl-1H-imidazolium bromide] | kg/m3 | 1042.27 |
| CCn1cc[n+](CC)c1.[Br-] [1,3-diethyl-1H-imidazolium bromide] | kg/m3 | 1336.13 |
| CCCCCCCCCCCC[n+]1ccn(CC)c1.[Br-] [3-dodecyl-1-ethyl-1H-imidazolium bromide] | kg/m3 | 1066.96 |

Ask | Recorded mass density of CCCCCC[n+]1ccn(CC)c1.[Br-] [1-ethyl-3-hexyl-1H-imidazolium bromide] , please.
Reply | 1179.46

Ask | Do the same for CCCCCCCC[n+]1ccn(CCCC)c1.[Br-] [1-butyl-3-octyl-1H-imidazolium bromide] please
Reply | 1105.74

Ask | Try CCCC[n+]1ccn(CC)c1.[Br-] [1-butyl-3-ethylimidazolium bromide] next.
Reply | 1245.45

----------
conditions: 293.15 K; 101.33 kPa; Liquid; Vibrating tube method
PROPERTY: mass density (kg/m3)
Response body: numeric value in kg/m3, unit text excluded.

Known results for compounds:
| COMPOUND | RECORDED VALUE |
| --- | --- |
| CCCCCC[n+]1ccn(CC)c1.[Br-] [1-ethyl-3-hexyl-1H-imidazolium bromide] | 1197.06 |
| CCCCCCCC[n+]1ccn(CC)c1.[Br-] [1-ethyl-3-octyl-1H-imidazolium bromide] | 1148.89 |
| CCCCCCCC[n+]1ccn(CCCC)c1.[Br-] [1-butyl-3-octyl-1H-imidazolium bromide] | 1123.09 |
| CCn1cc[n+](CC)c1.[Br-] [1,3-diethyl-1H-imidazolium bromide] | 1355.06 |
| CCCCCCCCCCCC[n+]1ccn(CC)c1.[Br-] [3-dodecyl-1-ethyl-1H-imidazolium bromide] | 1084.31 |

Ask | What value of mass density has been recorded for this entry: CCCCn1cc[n+](CCCC)c1.[Br-] [1,3-dibutylimidazolium bromide]
Reply | 1197.07

Ask | Also, CCCCCC[n+]1ccn(CCCC)c1.[Br-] [1-butyl-3-hexyl-1H-imidazolium bromide] please.
Reply | 1148.8
